Every entry's value here was drawn from patent US11155557B2.

- System Tested: isolated recombinant JAK2 kinase domain (Homo sapiens (Human))
- Sequence (O60674 849-1124): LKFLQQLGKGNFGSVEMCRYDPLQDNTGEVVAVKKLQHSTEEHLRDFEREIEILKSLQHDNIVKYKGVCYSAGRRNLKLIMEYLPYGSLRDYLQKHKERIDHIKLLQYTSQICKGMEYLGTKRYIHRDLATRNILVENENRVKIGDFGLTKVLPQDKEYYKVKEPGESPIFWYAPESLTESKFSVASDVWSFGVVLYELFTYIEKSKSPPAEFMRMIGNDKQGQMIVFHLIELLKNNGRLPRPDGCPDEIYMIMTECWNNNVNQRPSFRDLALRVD
- Measurement Notes: JAK2 enzyme assay (Caliper LabChip, Ki)
- Condition Info: read-out: JAK2 Ki
Assay Metric: Ki
Remember to put the unit after the number in your answer.

Kindly give each listed record's Ki.
1. NC(=O)c1cc2cc(OC(F)F)c(-c3nn(CC(=O)N4CCC(N5CCOCC5)CC4)cc3NC(=O)c3cnn4cccnc34)cc2s1
2. CN(C)CCn1cc(NC(=O)c2cnn3cccnc23)c(-c2cc3c(cc2OC(F)F)NCCS3)n1

Ans:
1. 0.37 nM
2. 0.16 nM

Kindly give each listed record's Ki.
1. O=C(Nc1cn(CC(=O)N2CCC(N3CCOCC3)CC2)nc1-c1cc2c(cc1OC(F)F)NCCS2)c1cnn2cccnc12
2. O=C(Nc1cn(C2CCCNC2)nc1-c1cc2ccccc2cc1OC(F)F)c1cnn2cccnc12 (racemic)

Ans:
["0.22 nM", "0.78 nM"]

====

Would you kindly list pKi for each of these molecules?
- System Tested: isolated recombinant JAK1 kinase domain (Homo sapiens (Human))
- Sequence (P23458 875-1153): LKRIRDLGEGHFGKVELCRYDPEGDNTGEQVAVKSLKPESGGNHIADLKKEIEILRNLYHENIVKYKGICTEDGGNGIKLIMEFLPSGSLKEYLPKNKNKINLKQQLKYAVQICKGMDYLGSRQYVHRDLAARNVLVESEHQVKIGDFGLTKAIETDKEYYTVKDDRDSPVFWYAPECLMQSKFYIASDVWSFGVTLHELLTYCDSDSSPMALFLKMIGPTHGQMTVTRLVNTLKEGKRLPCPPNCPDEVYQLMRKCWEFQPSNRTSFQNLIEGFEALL
- Measurement Notes: JAK1 enzyme assay (Caliper LabChip, Ki)
- Format: biochemical
One number for each entry, as −log10 of the molar value.

Below: 10 molecules and their reported pKi.
> print(dat)
                                    molecule                             system.tested  assay.metric  observed.value
 1  O=C(Nc1cn(CC(=O)N2CCC(CN3CCOCC3)CC2)nc1-c1cc2c(cc1OC(F)F)NCCO2)c1cnn2cccnc12  isolated recombinant JAK1 kinase domain (Homo sapiens (Human))           pKi            9.47
 2  O=C(Nc1cn(C2CCCNC2)nc1-c1cc2ccccc2cc1OC(F)F)c1cnn2cccnc12 (racemic)  isolated recombinant JAK1 kinase domain (Homo sapiens (Human))           pKi            8.92
 3  CC1CSc2cc(-c3nn(CC(=O)N(C)C)cc3NC(=O)c3cnn4cccnc34)c(OC(F)F)cc2N1 (single isomer, unassigned) [Example 113]  isolated recombinant JAK1 kinase domain (Homo sapiens (Human))           pKi            9.66
 4  O=C(Nc1cn(CC(=O)N2CCCCC2)nc1-c1cc2c(cc1OC(F)F)NCCO2)c1cnn2cccnc12  isolated recombinant JAK1 kinase domain (Homo sapiens (Human))           pKi            9.70
 5  CN(C)C(=O)Cn1cc(NC(=O)c2cnn3cccnc23)c(-c2cc3c(cc2OC(F)F)SCCO3)n1  isolated recombinant JAK1 kinase domain (Homo sapiens (Human))           pKi            9.20
 6  CC1Sc2cc(-c3n[nH]cc3NC(=O)c3cnn4cccnc34)c(OC(F)F)cc2NC1=O (single isomer, unassigned) [Example 96]  isolated recombinant JAK1 kinase domain (Homo sapiens (Human))           pKi           10.15
 7  CNC(=O)Cn1cc(NC(=O)c2cnn3cccnc23)c(-c2cc3c(cc2OC(F)F)SCCO3)n1  isolated recombinant JAK1 kinase domain (Homo sapiens (Human))           pKi            9.00
 8  CCn1cc(NC(=O)c2cnn3cccnc23)c(-c2cc3ccccc3cc2OC(F)F)n1  isolated recombinant JAK1 kinase domain (Homo sapiens (Human))           pKi            9.21
 9  CN(C)C(=O)Cn1cc(NC(=O)c2cnn3cccnc23)c(-c2cc3c(cc2OC(F)F)NCCO3)n1  isolated recombinant JAK1 kinase domain (Homo sapiens (Human))           pKi            9.74
10  CN1CCC(n2cc(NC(=O)c3cnn4cccnc34)c(-c3cc4c(cc3OC(F)F)NCCS4)n2)C1=O (single isomer, unassigned) [Example 125]  isolated recombinant JAK1 kinase domain (Homo sapiens (Human))           pKi            9.82

Kindly give each listed record's pKi.
1. O=C(Nc1cn(CC2(O)CCOCC2)nc1-c1cc2c(cc1OC(F)F)NCCO2)c1cnn2cccnc12
2. CC1CSc2cc(-c3n[nH]cc3NC(=O)c3cnn4cccnc34)c(OC(F)F)cc2N1 (racemic)

Ans:
1. 9.40
2. 10.10
